This listing pairs compounds with measured growth inhibition.
experiment: NCI Yeast Anticancer Drug Screen. Data for the CLN2oe strain (AID 163);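 note: 0% = growth of vehicle-only control cultures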; conditions: S. cerevisiae CLN2oe strain, at 3.7 µM, stronger effect = higher value
About 79,000 compounds went through this panel and 15% of them were active in at least one assay; those are over-represented in the sample as a whole.
measured_metric: growth inhibition (%)

# compound, units_of_measure, measurement
rows = [
    ("[Pt].c1ccc(P(CCP(c2ccccc2)c2ccccc2)CCP(c2ccccc2)c2ccccc2)cc1", "%", -4),
    ("CN(N=O)c1ccc(/C=C/c2ccnc3ccccc23)cc1", "%", -4),
    ("Nc1cc(S(N)(=O)=O)ccc1SSc1ccc(S(N)(=O)=O)cc1N", "%", -1),
    ("Nc1ccc(CCl)cc1Cc1c(O)ccc2ccccc12", "%", -7),
    ("O=[N+]([O-])/C(C(Cl)=C(Cl)Cl)=C1/OCCS1", "%", 44),
    ("CC(=O)[C@]1(O)Cc2c(O)c3c(c(O)c2[C@@H](OC2CC(N)C(O)C(C)O2)C1)C(=O)c1c(OCc2ccccc2)cccc1C3=O (stereo partly specified)", "%", 16),
    ("O=C(/C=C\\c1ccc([N+](=O)[O-])o1)Nc1ccc(Cl)cc1", "%", 30),
    ("CCNc1ccc2c(c1)C(=O)N(OS(C)(=O)=O)C2=O", "%", -6),
    ("O=c1ccc(N=Nc2ccccc2)ccc1O", "%", 33),
    ("Cc1ccc(CNc2ccc(Br)cc2)cc1", "%", 11),
    ("N#C/C(=C1C=C/C(=N/O)c2ccccc2/1)c1ccccc1", "%", -6),
    ("Clc1cc(-c2ccccc2)nc2ccccc12", "%", 3),
    ("O=C1NC(c2c(Cl)cccc2Cl)Nc2ccccc21 (stereo unspecified)", "%", 2),
    ("O/N=C/C1c2ccccc2-c2ccccc21", "%", -3),
    ("C=C(C)[C@@H]1CCc2c(O)c(O)c(=O)cc(C)c2C1", "%", 20),
    ("COc1ccc(/C(C#N)=C/c2ccc(OC)c(OC)c2)cc1", "%", 9),
    ("CC1OC(OC2CCCc3c(O)c4c(c(O)c32)C(=O)c2ccccc2C4=O)CC(N)C1O (stereo unspecified)", "%", -1),
    ("O=C(O)c1cccc2cccc(-c3c4ccc(=O)cc-4oc4cc(O)ccc34)c12", "%", 9),
    ("Cc1c2cc[n+](CCN3CCCCC3)cc2c(C)c2c1[nH]c1ccc(O)cc12", "%", -3),
    ("C=Cc1cnc([N+](=O)[O-])n1C", "%", 8),
    ("O=C1c2c(O)cccc2-c2nn(CCNCCO)c3ccc(NCCNCCO)c1c23", "%", 22),
    ("S=C1SCN(CCc2ccccc2)CN1CCc1ccccc1", "%", 10),
    ("Clc1cc(Cc2ccc(N=C/C=C/c3ccccc3)c(Cl)c2)ccc1N=C/C=C\\c1ccccc1", "%", -18),
    ("O=C(O)c1[nH]c(=O)c2ccccc2c1Nc1ccccc1", "%", 1),
    ("Cc1ccc(I)cc1N=C=S", "%", 6),
    ("CC(=O)c1cc2c(Cl)cc(Cl)cc2oc1=O", "%", -22),
    ("C=C1N(C)c2ccc(Cl)cc2C1(C)C", "%", -31),
    ("NCc1c(O)ccc2ccccc12", "%", -4),
    ("NC(N)=NCCCS(=O)(=O)Nc1ccc(Nc2c3ccccc3nc3cc([N+](=O)[O-])ccc23)cc1", "%", -47),
    ("O=C1C(Cl)=C(Cl)C(Cl)(Cl)C(Cl)C1(Cl)Cl (stereo unspecified)", "%", 38),
    ("O=C(/C=N/O)Nc1cc(Cl)c(Cl)cc1Cl", "%", 18),
    ("CCCCC(CC)C(=O)Oc1ccc(C(=O)c2ccccc2)c(O)c1 (stereo unspecified)", "%", 17),
    ("Clc1nc(C(Cl)Cl)nc2sc3c(c12)CCCC3", "%", 9),
    ("O=Nn1c2ccccc2c2cc([N+](=O)[O-])ccc21", "%", -9),
    ("CCOC(=O)C(NC(=O)CC)(N1CCN(c2cc3c(cc2F)c(=O)c(C(=O)O)cn3C2CC2)CC1)C(F)(F)F (stereo unspecified)", "%", 3),
    ("CC(C)(C)c1ccc(O)c(C(c2ccc([N+](=O)[O-])cc2)c2cc(C(C)(C)C)ccc2O)c1", "%", 19),
    ("NNC(=S)Nc1cccc2ccccc12", "%", -3),
    ("CNc1nc(C)nc2c1cnn2-c1ccc([N+](=O)[O-])cc1", "%", -5),
    ("CCCCCC#CCOC(=O)C(=[N+]=[N-])P(=O)(c1ccccc1)c1ccccc1", "%", 5),
    ("O=C1CC(=O)N(C2CCCCC2)C(=O)N1c1ccccc1S(=O)(=O)Oc1ccccc1", "%", -1),
    ("CCN(CC)CCNC(=O)c1nn(-c2ccc(Cl)cc2)c2c1CCc1cc(OC)ccc1-2", "%", 11),
    ("Nc1nc(N)c2c(n1)CCC(S(=O)(=O)c1ccc3ccccc3c1)C2 (stereo unspecified)", "%", 6),
    ("c1ccc(N2N=C3N(c4ccccc4)C2N3c2ccccc2)cc1", "%", -7),
    ("Cc1ccc(S(=O)(=O)N(C)c2ccc(Cl)cc2C2=NCCc3ccccc32)cc1", "%", 2),
    ("Cc1cc(O)c2c(c1)C(=O)C=C(Br)C2=O", "%", 16),
    ("[N-]=[N+]=NC(c1ccccc1)(c1ccccc1)c1ccccc1", "%", 23),
]
